Molecular target: T1, GFP-9S library array, motif 4 ND N98E;D124S (synthetic construct, N98E;D124S)
T1 chain: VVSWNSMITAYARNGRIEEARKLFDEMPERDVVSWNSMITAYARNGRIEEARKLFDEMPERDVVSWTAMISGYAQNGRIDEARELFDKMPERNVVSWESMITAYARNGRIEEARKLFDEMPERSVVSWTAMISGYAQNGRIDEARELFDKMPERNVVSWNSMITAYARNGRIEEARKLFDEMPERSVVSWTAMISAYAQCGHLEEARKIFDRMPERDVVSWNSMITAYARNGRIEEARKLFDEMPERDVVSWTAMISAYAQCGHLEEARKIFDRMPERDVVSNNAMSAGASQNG
Assay: high-throughput RNA pulldown from lysate on Ni-NTA beads; HRP: 50 mM Tris pH 8, 150 mM NaCl, 1 mM beta-mercaptoethanol, 50 ug/ml BSA, 3 ug/ml yeast RNA, 0.5% heparin; ITC and FP: Tris pH 8, 200 mM KCl, 5% glycerol; MST: 50 mM Tris pH 8, 200 mM NaCl, 1 mM DTT, BSA, heparin, 0.05% Tween 20
Settings: tags: N-terminal His-eGFP; label: 5' IRDye 800CW
Attribute: Kd
# value in µM; strip the unit string

# BINDER, Kd [µM]
data = [
    ("AUUAAACGUGA (ssRNA) [IR-rpoA-A]", 0.938),
]

Consider the record given below.
Need Kd, item AUUAUACGUGA (ssRNA) [IR-rpoA-U]
0.512
